# assay.name: mn = molality of the nth substance listed, in mol/kg
# reported.conditions: 308.15 K; 101 kPa; Liquid; Sing-around technique in a fixed-path interferometer; m1 = 0.9
assay.endpoint: speed of sound (m/s)

>>> value_observed("O=P([O-])(O)O.[K+] [monopotassium phosphate] + O")
1596.6
>>> value_observed("O=P([O-])([O-])O.[K+].[K+] [dipotassium hydrogen phosphate] + O")
1657.8
>>> value_observed("O=P([O-])([O-])[O-].[Na+].[Na+].[Na+] [trisodium phosphate] + O")
1727.6
>>> value_observed("O=P([O-])([O-])[O-].[K+].[K+].[K+] [tripotassium phosphate] + O")
1725.1
>>> value_observed("O=P(O)(O)O [phosphoric acid] + O")
1524.6
